- Tested on: human TGF-beta1 mRNA
- procedure.details: Antisense inhibition of human TGF-beta1 mRNA in HuVEC cells, single 10 nM dose, Lipofectamine 2000 (Example 2)
- Assay type: cell-based
- setup.conditions: 10 nM oligonucleotide, HuVEC, relative to untreated control cells; gapmers targeted to SEQ ID NO: 1
In the oligonucleotide strings, read from the 5' end, every base follows the letter of its sugar. An asterisk marks phosphorothioate; unmarked linkages are phosphodiester. Other units and linkages are bracketed, terminal groups are in braces. A string of capitals states the bases alone. e = 2'-O-(2-methoxyethyl) (MOE); [5mC] = 5-methylcytosine; d = 2'-deoxy (DNA)
Class label 1: % inhibition at least 80%. Class label 0: % inhibition below 80%.

{"substance": "414034 (antisense e[5mC]*e[5mC]*dT*dT*dA*dA*dA*dT*dA*d[5mC]*dA*dG*d[5mC]*d[5mC]*d[5mC]*e[5mC]*e[5mC]*eA*eT*eG) [compound 414034]", "qualitative.label": "label 0"}
{"substance": "413980 (antisense e[5mC]*e[5mC]*dG*dG*d[5mC]*dT*d[5mC]*d[5mC]*d[5mC]*dA*dG*d[5mC]*dG*dG*d[5mC]*eA*eA*e[5mC]*eG*eG) [compound 413980]", "qualitative.label": "label 0"}
{"substance": "413981 (antisense e[5mC]*eT*d[5mC]*d[5mC]*dG*dG*d[5mC]*dT*d[5mC]*d[5mC]*d[5mC]*dA*dG*d[5mC]*dG*eG*e[5mC]*eA*eA*e[5mC]) [compound 413981]", "qualitative.label": "label 0"}
{"substance": "414014 (antisense eG*eA*dT*dG*dG*dG*d[5mC]*dG*d[5mC]*dG*dA*dT*d[5mC]*dT*dG*eG*eT*eA*e[5mC]*e[5mC]) [compound 414014]", "qualitative.label": "label 1"}
{"substance": "413969 (antisense e[5mC]*eG*dA*d[5mC]*dT*d[5mC]*d[5mC]*dT*dT*d[5mC]*d[5mC]*dT*d[5mC]*d[5mC]*dG*e[5mC]*eT*e[5mC]*e[5mC]*eG) [compound 413969]", "qualitative.label": "label 0"}
{"substance": "414037 (antisense eG*eG*dG*dT*dG*dT*d[5mC]*d[5mC]*dT*dT*dA*dA*dA*dT*dA*e[5mC]*eA*eG*e[5mC]*e[5mC]) [compound 414037]", "qualitative.label": "label 1"}
{"substance": "414027 (antisense eG*eG*d[5mC]*d[5mC]*dT*d[5mC]*dA*dG*dG*d[5mC]*dT*d[5mC]*dG*dG*dG*e[5mC]*eT*e[5mC]*e[5mC]*eG) [compound 414027]", "qualitative.label": "label 1"}
{"substance": "414038 (antisense eA*e[5mC]*dG*dG*dG*dT*dG*dT*d[5mC]*d[5mC]*dT*dT*dA*dA*dA*eT*eA*e[5mC]*eA*eG) [compound 414038]", "qualitative.label": "label 1"}
{"substance": "414029 (antisense eG*eA*dG*d[5mC]*dT*d[5mC]*dT*dG*dA*dT*dG*dT*dG*dT*dT*eG*eA*eA*eG*eA) [compound 414029]", "qualitative.label": "label 0"}

* * *

Listed here are substances together with their documented percent inhibition of TGF-beta1.
- Tested on: human TGF-beta1 mRNA
- procedure.details: Dose-dependent confirmation of antisense inhibition of human TGF-beta1 in HuVEC cells after large-scale synthesis, Lipofectamine 2000, 0.007-15 nM (Example 5)
- Type: cell-based
- setup.conditions: 0.556 nM, Lipofectamine 2000
In the oligonucleotide strings, read from the 5' end, every base follows the letter of its sugar. An asterisk marks phosphorothioate; unmarked linkages are phosphodiester. Other units and linkages are bracketed, terminal groups are in braces. A string of capitals states the bases alone. e = 2'-O-(2-methoxyethyl) (MOE); [5mC] = 5-methylcytosine; d = 2'-deoxy (DNA)
quantity.name: percent inhibition of TGF-beta1 (%)

{"substance": "413982 (antisense GCCTCCGGCTCCCAGCGGCA; sugars from the 5' end e2 d13 e5, backbone and methylation of C not given here) [compound 413982]", "quantity.name": "percent inhibition of TGF-beta1", "observed": 71}
{"substance": "414036 (antisense GTGTCCTTAAATACAGCCCC; sugars from the 5' end e2 d13 e5, backbone and methylation of C not given here) [compound 414036]", "quantity.name": "percent inhibition of TGF-beta1", "observed": 73}
{"substance": "414040 (antisense e[5mC]*eT*d[5mC]*dT*d[5mC]*dT*d[5mC]*d[5mC]*dA*dT*d[5mC]*dT*dT*dT*dA*eA*eT*eG*eG*eG) [compound 414040]", "quantity.name": "percent inhibition of TGF-beta1", "observed": 83}
{"substance": "414035 (antisense GTCCTTAAATACAGCCCCCA; sugars from the 5' end e2 d13 e5, backbone and methylation of C not given here) [compound 414035]", "quantity.name": "percent inhibition of TGF-beta1", "observed": 76}

* * *

- System: human TGF-beta1 mRNA
- procedure.details: Dose-dependent confirmation of antisense inhibition of human TGF-beta1 in HuVEC cells, electroporation (Example 6)
- Type: cell-based
- setup.conditions: 0.3125 nM oligonucleotide
In the oligonucleotide strings, read from the 5' end, every base follows the letter of its sugar. An asterisk marks phosphorothioate; unmarked linkages are phosphodiester. Other units and linkages are bracketed, terminal groups are in braces. A string of capitals states the bases alone. e = 2'-O-(2-methoxyethyl) (MOE); [5mC] = 5-methylcytosine; d = 2'-deoxy (DNA)
quantity.name: percent inhibition of TGF-beta1 mRNA relative to untreated control cells (%)

{"substance": "413982 (antisense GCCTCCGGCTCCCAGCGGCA; sugars from the 5' end e2 d13 e5, backbone and methylation of C not given here) [compound 413982]", "target.system": "human TGF-beta1 mRNA", "observed": 32}
{"substance": "414040 (antisense e[5mC]*eT*d[5mC]*dT*d[5mC]*dT*d[5mC]*d[5mC]*dA*dT*d[5mC]*dT*dT*dT*dA*eA*eT*eG*eG*eG) [compound 414040]", "target.system": "human TGF-beta1 mRNA", "observed": 68}
{"substance": "414036 (antisense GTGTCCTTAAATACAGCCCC; sugars from the 5' end e2 d13 e5, backbone and methylation of C not given here) [compound 414036]", "target.system": "human TGF-beta1 mRNA", "observed": 38}
{"substance": "414035 (antisense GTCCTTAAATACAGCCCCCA; sugars from the 5' end e2 d13 e5, backbone and methylation of C not given here) [compound 414035]", "target.system": "human TGF-beta1 mRNA", "observed": 49}

* * *

- System: human TGF-beta1 mRNA
- procedure.details: Dose-dependent antisense inhibition of human TGF-beta1 in HuVEC cells, Lipofectamine 2000, 0.3292-80 nM, comparison with oligos of U.S. Pat. No. 6,436,909 (Example 4)
- Assay type: cell-based
- setup.conditions: 2.963 nM
In the oligonucleotide strings, read from the 5' end, every base follows the letter of its sugar. An asterisk marks phosphorothioate; unmarked linkages are phosphodiester. Other units and linkages are bracketed, terminal groups are in braces. A string of capitals states the bases alone. e = 2'-O-(2-methoxyethyl) (MOE); [5mC] = 5-methylcytosine; d = 2'-deoxy (DNA)
Listed here are substances together with their documented percent inhibition of TGF-beta1.
quantity.name: percent inhibition of TGF-beta1 (%)

{"substance": "414040 (antisense e[5mC]*eT*d[5mC]*dT*d[5mC]*dT*d[5mC]*d[5mC]*dA*dT*d[5mC]*dT*dT*dT*dA*eA*eT*eG*eG*eG) [compound 414040]", "target.system": "human TGF-beta1 mRNA", "observed": 94}
{"substance": "414036 (antisense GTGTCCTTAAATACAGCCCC; sugars from the 5' end e2 d13 e5, backbone and methylation of C not given here) [compound 414036]", "target.system": "human TGF-beta1 mRNA", "observed": 91}
{"substance": "413982 (antisense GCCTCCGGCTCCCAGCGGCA; sugars from the 5' end e2 d13 e5, backbone and methylation of C not given here) [compound 413982]", "target.system": "human TGF-beta1 mRNA", "observed": 91}
{"substance": "414035 (antisense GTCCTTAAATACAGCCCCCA; sugars from the 5' end e2 d13 e5, backbone and methylation of C not given here) [compound 414035]", "target.system": "human TGF-beta1 mRNA", "observed": 92}

* * *

- Tested on: human TGF-beta1 mRNA
- procedure.details: Dose-dependent confirmation of antisense inhibition of human TGF-beta1 in HuVEC cells after large-scale synthesis, Lipofectamine 2000, 0.007-15 nM (Example 5)
- Type: cell-based
- setup.conditions: 5 nM, Lipofectamine 2000
In the oligonucleotide strings, read from the 5' end, every base follows the letter of its sugar. An asterisk marks phosphorothioate; unmarked linkages are phosphodiester. Other units and linkages are bracketed, terminal groups are in braces. A string of capitals states the bases alone. e = 2'-O-(2-methoxyethyl) (MOE); [5mC] = 5-methylcytosine; d = 2'-deoxy (DNA)
Listed here are substances together with their documented percent inhibition of TGF-beta1.
quantity.name: percent inhibition of TGF-beta1 (%)

{"substance": "414035 (antisense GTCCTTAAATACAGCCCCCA; sugars from the 5' end e2 d13 e5, backbone and methylation of C not given here) [compound 414035]", "observed": 90}
{"substance": "414036 (antisense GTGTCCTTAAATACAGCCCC; sugars from the 5' end e2 d13 e5, backbone and methylation of C not given here) [compound 414036]", "observed": 91}
{"substance": "413982 (antisense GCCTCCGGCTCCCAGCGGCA; sugars from the 5' end e2 d13 e5, backbone and methylation of C not given here) [compound 413982]", "observed": 89}
{"substance": "414040 (antisense e[5mC]*eT*d[5mC]*dT*d[5mC]*dT*d[5mC]*d[5mC]*dA*dT*d[5mC]*dT*dT*dT*dA*eA*eT*eG*eG*eG) [compound 414040]", "observed": 92}

Just for reference, patent US20110172296A1 is where these values come from.
